B1: PhoQ; a variant is named by its letters at X, in order, P23837 (parent)
chain: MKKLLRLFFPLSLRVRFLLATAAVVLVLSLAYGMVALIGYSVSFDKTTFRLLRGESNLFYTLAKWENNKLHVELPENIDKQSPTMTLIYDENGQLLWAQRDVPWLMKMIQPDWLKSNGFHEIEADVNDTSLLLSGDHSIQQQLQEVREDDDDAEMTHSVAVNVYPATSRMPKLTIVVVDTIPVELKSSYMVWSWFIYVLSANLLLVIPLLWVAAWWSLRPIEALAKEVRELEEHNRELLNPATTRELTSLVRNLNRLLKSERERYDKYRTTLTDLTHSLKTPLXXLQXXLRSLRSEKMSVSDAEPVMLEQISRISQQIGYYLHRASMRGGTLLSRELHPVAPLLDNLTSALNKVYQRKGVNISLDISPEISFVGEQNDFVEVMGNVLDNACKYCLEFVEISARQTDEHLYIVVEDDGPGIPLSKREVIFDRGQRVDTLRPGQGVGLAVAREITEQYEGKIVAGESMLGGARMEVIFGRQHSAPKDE

Variants of: B1
Assay: enrichment ratio after two sorts for PhoP signalling (ratio (wild type AVST 3.29)); higher = more functional
Conditions: with PhoP (E. coli)
In all, about 140,000 sequences were measured (“enrichment ratio after two sorts for PhoP signalling”: median about 0, highest 2% from about 11 on). This excerpt belongs to a sample that is enriched for the highest values.

>  <mutation>
KGIG

>  <enrichment ratio>
≤ 0.25

$$$$
>  <mutation>
TYWS

>  <enrichment ratio>
≤ 0.25

$$$$
>  <mutation>
ESCY

>  <enrichment ratio>
≤ 0.25

$$$$
>  <mutation>
GTRE

>  <enrichment ratio>
≤ 0.25

$$$$
>  <mutation>
AYRQ

>  <enrichment ratio>
≤ 0.25

$$$$
>  <mutation>
PFSG

>  <enrichment ratio>
≤ 0.25

$$$$
>  <mutation>
VYFN

>  <enrichment ratio>
≤ 0.25

$$$$
>  <mutation>
LDCF

>  <enrichment ratio>
≤ 0.25

$$$$
>  <mutation>
AHLH

>  <enrichment ratio>
≤ 0.25

$$$$
>  <mutation>
TCAE

>  <enrichment ratio>
≤ 0.25

$$$$
>  <mutation>
SNCV

>  <enrichment ratio>
14.2

$$$$
>  <mutation>
TKLH

>  <enrichment ratio>
11.9

$$$$
>  <mutation>
DQQP

>  <enrichment ratio>
≤ 0.25

$$$$
>  <mutation>
GQCG

>  <enrichment ratio>
16.6

$$$$
>  <mutation>
SKMM

>  <enrichment ratio>
24.1

$$$$
>  <mutation>
VHSQ

>  <enrichment ratio>
≤ 0.25

$$$$
>  <mutation>
AKLH

>  <enrichment ratio>
14.6

$$$$
>  <mutation>
ATSQ

>  <enrichment ratio>
11.6

$$$$
>  <mutation>
DYAM

>  <enrichment ratio>
≤ 0.25

$$$$
>  <mutation>
GASY

>  <enrichment ratio>
≤ 0.25

$$$$
>  <mutation>
MIWN

>  <enrichment ratio>
≤ 0.25

$$$$
>  <mutation>
YRGN

>  <enrichment ratio>
≤ 0.25

$$$$
>  <mutation>
QAIL

>  <enrichment ratio>
≤ 0.25

$$$$
>  <mutation>
DMSW

>  <enrichment ratio>
≤ 0.25

$$$$
>  <mutation>
PTLY

>  <enrichment ratio>
≤ 0.25

$$$$
>  <mutation>
YTSG

>  <enrichment ratio>
≤ 0.25

$$$$
>  <mutation>
GTSQ

>  <enrichment ratio>
5.69

$$$$
>  <mutation>
LQPE

>  <enrichment ratio>
≤ 0.25

$$$$
>  <mutation>
KMTV

>  <enrichment ratio>
≤ 0.25

$$$$
>  <mutation>
TGSG

>  <enrichment ratio>
16.4

$$$$
>  <mutation>
SQCV

>  <enrichment ratio>
6.68

$$$$
>  <mutation>
TSSG

>  <enrichment ratio>
14.4

$$$$
>  <mutation>
VFHF

>  <enrichment ratio>
≤ 0.25

$$$$
>  <mutation>
MSLE

>  <enrichment ratio>
3.24

$$$$
>  <mutation>
KCEF

>  <enrichment ratio>
≤ 0.25

$$$$
>  <mutation>
HEMF

>  <enrichment ratio>
≤ 0.25

$$$$
>  <mutation>
WISQ

>  <enrichment ratio>
≤ 0.25

$$$$
>  <mutation>
TTFC

>  <enrichment ratio>
≤ 0.25

$$$$
>  <mutation>
SFIL

>  <enrichment ratio>
≤ 0.25

$$$$
>  <mutation>
YQNA

>  <enrichment ratio>
14.6

$$$$
>  <mutation>
MKLH

>  <enrichment ratio>
≤ 0.25

$$$$
>  <mutation>
YGSL

>  <enrichment ratio>
≤ 0.25

$$$$
>  <mutation>
WFLM

>  <enrichment ratio>
≤ 0.25

$$$$
>  <mutation>
QACS

>  <enrichment ratio>
≤ 0.25

$$$$
>  <mutation>
HEPH

>  <enrichment ratio>
≤ 0.25

$$$$
>  <mutation>
VEEF

>  <enrichment ratio>
≤ 0.25

$$$$
>  <mutation>
CQLH

>  <enrichment ratio>
27.9

$$$$
>  <mutation>
WQLM

>  <enrichment ratio>
15.8

$$$$
>  <mutation>
YQNS

>  <enrichment ratio>
≤ 0.25

$$$$
>  <mutation>
TFSG

>  <enrichment ratio>
13.9

$$$$
>  <mutation>
HQLH

>  <enrichment ratio>
≤ 0.25

$$$$
>  <mutation>
EDWM

>  <enrichment ratio>
≤ 0.25

$$$$
>  <mutation>
WFFE

>  <enrichment ratio>
≤ 0.25

$$$$
>  <mutation>
FSGP

>  <enrichment ratio>
≤ 0.25

$$$$
>  <mutation>
YQWM

>  <enrichment ratio>
≤ 0.25

$$$$
>  <mutation>
WMDF

>  <enrichment ratio>
≤ 0.25

$$$$
>  <mutation>
TTSG

>  <enrichment ratio>
19.5

$$$$
>  <mutation>
WYAY

>  <enrichment ratio>
≤ 0.25

$$$$
>  <mutation>
LDKC

>  <enrichment ratio>
≤ 0.25

$$$$
>  <mutation>
MCMM

>  <enrichment ratio>
11.9

$$$$
>  <mutation>
GGGP

>  <enrichment ratio>
≤ 0.25

$$$$
>  <mutation>
GYMF

>  <enrichment ratio>
≤ 0.25

$$$$
>  <mutation>
GQWG

>  <enrichment ratio>
≤ 0.25

$$$$
>  <mutation>
YQLA

>  <enrichment ratio>
≤ 0.25

$$$$
>  <mutation>
SNMF

>  <enrichment ratio>
19.4

$$$$
>  <mutation>
GQCE

>  <enrichment ratio>
21.9

$$$$
>  <mutation>
TCAV

>  <enrichment ratio>
13.4

$$$$
>  <mutation>
SPYV

>  <enrichment ratio>
≤ 0.25

$$$$
>  <mutation>
APKL

>  <enrichment ratio>
≤ 0.25

$$$$
>  <mutation>
NPDP

>  <enrichment ratio>
≤ 0.25

$$$$
>  <mutation>
RECW

>  <enrichment ratio>
≤ 0.25

$$$$
>  <mutation>
SNRK

>  <enrichment ratio>
≤ 0.25

$$$$
>  <mutation>
HEPN

>  <enrichment ratio>
18.8

$$$$
>  <mutation>
ANRW

>  <enrichment ratio>
≤ 0.25

$$$$
>  <mutation>
KSMM

>  <enrichment ratio>
≤ 0.25

$$$$
>  <mutation>
TRNK

>  <enrichment ratio>
≤ 0.25

$$$$
>  <mutation>
FGKS

>  <enrichment ratio>
≤ 0.25

$$$$
>  <mutation>
LDYA

>  <enrichment ratio>
≤ 0.25

$$$$
>  <mutation>
MICN

>  <enrichment ratio>
31.9

$$$$
>  <mutation>
KCSV

>  <enrichment ratio>
≤ 0.25

$$$$
>  <mutation>
KCAV

>  <enrichment ratio>
≤ 0.25

$$$$
>  <mutation>
MFCN

>  <enrichment ratio>
≤ 0.25

$$$$
>  <mutation>
EQVK

>  <enrichment ratio>
≤ 0.25

$$$$
>  <mutation>
KKLH

>  <enrichment ratio>
≤ 0.25

$$$$
>  <mutation>
WQCV

>  <enrichment ratio>
≤ 0.25

$$$$
>  <mutation>
WEGM

>  <enrichment ratio>
≤ 0.25

$$$$
>  <mutation>
GNMF

>  <enrichment ratio>
15.2

$$$$
>  <mutation>
WVRL

>  <enrichment ratio>
≤ 0.25

$$$$
>  <mutation>
SQCN

>  <enrichment ratio>
10.1

$$$$
>  <mutation>
SFMM

>  <enrichment ratio>
0.454

$$$$
>  <mutation>
VHFE

>  <enrichment ratio>
≤ 0.25

$$$$
